Measured values drawn from patent US20240301052A1 for this set.

Target: T1, human SLC34A2 (human, UniProt O95436 1-690)
T1 sequence (looked up): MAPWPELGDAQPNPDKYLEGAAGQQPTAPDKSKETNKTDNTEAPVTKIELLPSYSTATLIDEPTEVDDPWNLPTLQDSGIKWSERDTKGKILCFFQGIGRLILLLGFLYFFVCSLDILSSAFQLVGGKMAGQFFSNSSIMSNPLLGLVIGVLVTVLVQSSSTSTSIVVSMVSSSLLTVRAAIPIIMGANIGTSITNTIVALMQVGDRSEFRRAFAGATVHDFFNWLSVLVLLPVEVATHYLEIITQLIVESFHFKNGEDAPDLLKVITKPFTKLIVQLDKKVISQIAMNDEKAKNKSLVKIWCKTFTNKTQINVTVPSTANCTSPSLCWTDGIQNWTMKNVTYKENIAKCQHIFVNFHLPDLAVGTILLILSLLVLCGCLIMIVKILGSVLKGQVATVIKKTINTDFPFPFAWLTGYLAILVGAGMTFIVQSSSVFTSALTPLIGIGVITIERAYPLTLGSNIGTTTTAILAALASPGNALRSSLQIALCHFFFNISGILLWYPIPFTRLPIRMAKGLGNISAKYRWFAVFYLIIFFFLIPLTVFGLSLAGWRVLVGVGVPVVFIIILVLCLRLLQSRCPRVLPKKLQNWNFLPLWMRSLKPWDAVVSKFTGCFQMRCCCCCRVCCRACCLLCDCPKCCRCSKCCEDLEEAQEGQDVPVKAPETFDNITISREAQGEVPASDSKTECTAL
Assay: cell-based or functional assay
Reported ADCC reporter EC50 is given for each of the following binders.
Kindly report the value followed by its unit.

Below: 5 binders and their reported ADCC reporter EC50.
binder: 30H9B8F9 VH_P1/VL hIgG1 (antibody, V domains shown, PTM-derisked chimeric, hIgG1; that P1 is the N=>S version follows from the humanized .p1 chains; also called 30H9B8F9.p1 hIgG1) VH: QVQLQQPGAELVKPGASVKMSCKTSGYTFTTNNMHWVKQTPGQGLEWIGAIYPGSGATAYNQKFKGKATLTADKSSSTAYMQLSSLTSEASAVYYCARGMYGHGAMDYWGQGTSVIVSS VL: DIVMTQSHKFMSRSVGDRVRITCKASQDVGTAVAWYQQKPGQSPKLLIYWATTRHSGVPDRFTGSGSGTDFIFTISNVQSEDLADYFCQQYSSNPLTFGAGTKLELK
property-measured: ADCC reporter EC50
endpoint-result: 2.52 nM
--
binder: 62G10E4G8.p3.z11 hIgG1 (antibody, V domains shown, humanized hIgG1) VH: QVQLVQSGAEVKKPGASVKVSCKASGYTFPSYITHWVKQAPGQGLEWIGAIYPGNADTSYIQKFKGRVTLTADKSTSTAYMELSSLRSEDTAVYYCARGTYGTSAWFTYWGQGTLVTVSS VL: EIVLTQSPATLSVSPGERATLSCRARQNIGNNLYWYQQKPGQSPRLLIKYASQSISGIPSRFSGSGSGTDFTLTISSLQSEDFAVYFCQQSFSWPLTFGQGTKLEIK
property-measured: ADCC reporter EC50
endpoint-result: 3.78 nM
--
binder: 63A11D5B4.p1.z9 hIgG1 (antibody, V domains shown, humanized hIgG1) VH: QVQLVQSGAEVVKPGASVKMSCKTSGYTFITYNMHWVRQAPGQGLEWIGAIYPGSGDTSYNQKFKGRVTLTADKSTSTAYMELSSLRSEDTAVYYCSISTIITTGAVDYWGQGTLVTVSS VL: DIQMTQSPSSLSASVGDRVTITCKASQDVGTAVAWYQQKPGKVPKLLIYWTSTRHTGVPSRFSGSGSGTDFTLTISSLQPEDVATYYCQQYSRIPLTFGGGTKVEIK
property-measured: ADCC reporter EC50
endpoint-result: 1.69 nM
--
binder: 63A11D5B4.p1.z5 hIgG1 (antibody, V domains shown, humanized hIgG1) VH: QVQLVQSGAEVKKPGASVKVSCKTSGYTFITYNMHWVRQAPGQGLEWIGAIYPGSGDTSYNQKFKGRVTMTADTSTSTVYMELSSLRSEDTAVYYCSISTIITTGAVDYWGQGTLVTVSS VL: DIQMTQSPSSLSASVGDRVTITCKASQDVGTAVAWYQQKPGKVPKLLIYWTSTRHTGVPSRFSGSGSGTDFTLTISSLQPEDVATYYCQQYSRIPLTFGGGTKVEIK
property-measured: ADCC reporter EC50
endpoint-result: 0.95 nM
--
binder: 91C9F1.p1.z6 hIgG1 (antibody, V domains shown, humanized hIgG1) VH: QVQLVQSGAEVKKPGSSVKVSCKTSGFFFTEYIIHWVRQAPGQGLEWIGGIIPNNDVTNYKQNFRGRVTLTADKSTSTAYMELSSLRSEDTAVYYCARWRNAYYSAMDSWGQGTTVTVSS VL: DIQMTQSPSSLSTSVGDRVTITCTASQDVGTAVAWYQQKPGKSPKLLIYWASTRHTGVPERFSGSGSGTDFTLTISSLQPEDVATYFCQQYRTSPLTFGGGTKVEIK
property-measured: ADCC reporter EC50
endpoint-result: 1.77 nM

Ask: Requested read-out: ADCC reporter EC50. Entry: 91C9F1.p1.z10 hIgG1 (antibody, V domains shown, humanized hIgG1) VH: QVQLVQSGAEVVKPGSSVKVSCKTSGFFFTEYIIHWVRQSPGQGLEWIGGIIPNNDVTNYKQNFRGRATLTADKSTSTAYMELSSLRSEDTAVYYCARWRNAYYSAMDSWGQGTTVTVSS VL: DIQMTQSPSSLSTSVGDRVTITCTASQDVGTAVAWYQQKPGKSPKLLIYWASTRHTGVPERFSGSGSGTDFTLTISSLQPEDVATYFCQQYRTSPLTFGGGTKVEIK
Result: 2.37 nM

Ask: Requested read-out: ADCC reporter EC50. Entry: 63A11D5B4 VH_P1/VL hIgG1 (antibody, V domains shown, PTM-derisked chimeric, hIgG1; that P1 is the SG version follows from the humanized .p1 chains; also called 63A11D5B4.p1 hIgG1) VH: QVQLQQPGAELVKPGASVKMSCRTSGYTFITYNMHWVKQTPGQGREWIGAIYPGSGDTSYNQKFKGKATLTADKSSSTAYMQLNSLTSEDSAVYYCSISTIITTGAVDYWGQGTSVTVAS VL: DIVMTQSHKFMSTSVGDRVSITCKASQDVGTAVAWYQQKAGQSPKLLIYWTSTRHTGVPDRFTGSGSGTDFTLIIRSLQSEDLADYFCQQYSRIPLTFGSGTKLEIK
Result: 2.83 nM
